Measured values drawn from patent US5324722A for this set.

Reported WRITHING ASSAY Number Out of Ten I.G. values follow for various compounds
Tested on: mice
Protocol summary: Writhing Assay (PBQ-induced writhing)
Assay type: in vivo
Details: number of mice out of ten with analgesia; 30 mg per kilogram intragastric, 30 minutes before PBQ i.p.; male albino mice

CCS(=O)(=O)CCC(=O)NNC(=O)C1c2ccccc2Oc2ccc(Cl)cc2N1C(=O)OC(C)(C)C (stereo not shown)	5/10
CCC1c2ccccc2Oc2ccc(Cl)cc2N1C(=O)NNC(=O)CCS(=O)(=O)CC (stereo not shown)	1/10
CCS(=O)(=O)CCC(=O)NNC(=O)N1c2cc(Cl)ccc2Oc2ccccc2C1C (stereo not shown)	5/10

Now look at this one.
# query: WRITHING ASSAY Number Out of Ten I.G. of entry CCCC1c2ccccc2Oc2ccc(Cl)cc2N1C(=O)NNC(=O)CCS(=O)(=O)CC (stereo not shown)
3/10

====

System: mice
Protocol summary: Writhing Assay (PBQ-induced writhing)
Format: in vivo
Details: number of mice out of ten with analgesia; 30 mg per kilogram subcutaneous, 30 minutes before PBQ i.p.; male albino mice
Measurement label: WRITHING ASSAY Number Out of Ten S.C.

CCCC1c2ccccc2Oc2ccc(Cl)cc2N1C(=O)NNC(=O)CCS(=O)(=O)CC (stereo not shown)	1/10

Given the entry CCS(=O)(=O)CCC(=O)NNC(=O)N1c2cc(Cl)ccc2Oc2ccccc2C1C (stereo not shown) , what WRITHING ASSAY Number Out of Ten S.C. was observed with mice?
5/10

Also need CCS(=O)(=O)CCC(=O)NNC(=O)C1c2ccccc2Oc2ccc(Cl)cc2N1C(=O)OC(C)(C)C (stereo not shown) , thanks.
3/10

Also need CCC1c2ccccc2Oc2ccc(Cl)cc2N1C(=O)NNC(=O)CCS(=O)(=O)CC (stereo not shown) , thanks.
2/10
